Value source: ChEMBL document CHEMBL1144780

- system-name: Mitogen-activated protein kinase 14 (Homo sapiens)
- Sequence (Q16539 whole entry): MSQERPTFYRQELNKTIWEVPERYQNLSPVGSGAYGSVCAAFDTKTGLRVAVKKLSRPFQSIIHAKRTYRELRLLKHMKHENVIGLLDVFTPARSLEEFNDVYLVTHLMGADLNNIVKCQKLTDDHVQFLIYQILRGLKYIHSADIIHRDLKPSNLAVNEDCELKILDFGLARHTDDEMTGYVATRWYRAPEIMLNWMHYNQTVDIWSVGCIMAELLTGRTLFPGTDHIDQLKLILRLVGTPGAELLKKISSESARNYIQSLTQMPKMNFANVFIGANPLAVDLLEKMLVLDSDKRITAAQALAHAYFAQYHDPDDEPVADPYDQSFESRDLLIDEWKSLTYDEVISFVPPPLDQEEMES
- experiment-summary: Inhibition of p38alpha
Exercise: state measured IC50 for each of the compounds provided.
Numbers only, in nM.

Answered examples (3):
In [3]: df
Out[3]:
                                 smiles_str  observation_type  reported
0  Cc1ccc(NC(=O)c2cc(F)cc(N3CCOCC3)c2)cc1Nc1ncnn2cc(C(=O)NC(C)C)c(C)c12              IC50         5
1  Cc1ccc(NC(=O)c2cc(F)cc(N3CCOCC3)c2)cc1Nc1ncnn2cc(C(=O)N[C@H](C)c3ccccc3)c(C)c12              IC50        23
2  Cc1ccc(C(=O)Nc2ccc(C)c(Nc3ncnn4cc(C(=O)N[C@@H](C)c5ccccc5)c(C)c34)c2)cc1              IC50        13

Please find the next compound below.
Query :: // IC50 lookup, key: Cc1ccc(NC(=O)c2cc(F)cc(N3CCOCC3)c2)cc1Nc1ncnn2cc(C(=O)NCCN(C)C)c(C)c12
Result :: 10
